Provide the reported TGI of each item.
tested on: A498 renal; test: NCI tumour cell line growth inhibition, 48 h
Answers are plain numbers, in µM.

compound	TGI / µM
Fc1ccc2[nH]cc(-c3nonc3-c3c[nH]c4ccc(Br)cc34)c2c1	6.38
O=C(CC(c1ccccc1)c1c(O)c2ccccc2oc1=O)c1ccccc1 (stereo unspecified)	98.6
CC[N+](CC)=c1sc2c(s1)C(c1ccc(Cl)cc1)Oc1ccc(Cl)cc1-2 (stereo unspecified)	10.2

Q: Please look up its TGI: COc1ccc(C(=O)/C=C/c2ccc(C)cc2)cc1OC
Result: 25

====

Consider the following compounds; for each one, report its TGI.
tested on: SK-MEL-28 melanoma; assay: NCI tumour cell line growth inhibition, 48 h
Answers are plain numbers, in µM.

compound	measure-unit	TGI
CN(C)CC(C)(C)C(=O)/C=C/c1ccc(/C=C/C(=O)C(C)(C)CN(C)C)cc1	µM	3.5
CCCN1C(=O)CC(C)N(Cc2ccccc2Cl)C1=S (stereo unspecified)	µM	62.4

Now examine the next entry.
Q: Provide the documented TGI with SK-MEL-28 melanoma as the system for CCOC(=O)N1CCN(c2nc(Nc3cc(C)[nH]n3)c3ccccc3n2)CC1
Result: 91.3
